Values were extracted from the supplement of paper PMC5908809.

tested on: KHYG-1 (IL-2 2.5 ng/mL); assay: percent inhibition of viability; higher = more inhibition; settings: 72 h; 1 nM
# percent inhibition of viability per record follows
quantity-kind: percent inhibition of viability

>>> print(df.to_string())
                                   molecule                    quantity_kind  test_value
0  Cc1ccc(F)c(NC(=O)Nc2ccc(-c3cccc4[nH]nc(N)c34)cc2)c1 [Linifanib] (max concentration tested 1000 nM)  percent inhibition of viability      -7.43%
1  Nc1cc(C(F)(F)F)c(-c2cc(N3CCOCC3)nc(N3CCOCC3)n2)cn1 [Buparlisib] (max concentration tested 10000 nM)  percent inhibition of viability      -1.22%
2  CCn1c(=O)c(-c2cc[nH]n2)cc2c(C)nc(N)nc21 [Voxtalisib] (max concentration tested 10000 nM)  percent inhibition of viability         -9%

----------
tested on: normal primary NK cells, pool 3 (3 donors) (IL-2 2.5 ng/mL); test: relative IC50 (inflection point of fitted viability curve, relative to fitted max inhibition); higher = less sensitive; settings: 72 h
# if value of relative IC50 reaches 300 nM, tag fulfilled; if it stays below, tag not fulfilled

>>> df
                         structure_notation  assigned_category
0     Cc1cc(C)c(/C=C2\C(=O)Nc3ccccc32)[nH]1          fulfilled
1  COc1cc2c(Oc3ccc4[nH]c(C)cc4c3F)ncnc2cc1OCCCN1CCCC1          fulfilled
2  N#CC[C@H](C1CCCC1)n1cc(-c2ncnc3[nH]ccc23)cn1      not fulfilled
3  CCc1cc2c(cc1N1CCC(N3CCOCC3)CC1)C(C)(C)c1[nH]c3cc(C#N)ccc3c1C2=O          fulfilled
4  NC(=O)N1CCC(CC(=O)N2CCC([C@H]3c4ncc(Br)cc4CCc4cc(Cl)cc(Br)c43)CC2)CC1          fulfilled
5  Nc1nc(F)nc2c1ncn2[C@@H]1O[C@H](CO)[C@@H](O)[C@@H]1O          fulfilled
6  CN1CCC(COc2cnc(-c3cccc(Cn4nc(-c5cccc(C#N)c5)ccc4=O)c3)nc2)CC1          fulfilled
7  N#Cc1ccc(COC[C@H]2O[C@@H](n3c(NCc4ccc(Cl)c(Cl)c4)nc4c(N)ncnc43)[C@H](O)[C@@H]2O)cc1          fulfilled
8  Nc1nc(Cl)nc2c1ncn2[C@H]1C[C@H](O)[C@@H](CO)O1      not fulfilled
9  C=CCNC1=C2C[C@@H](C)C[C@H](OC)[C@H](O)[C@@H](C)/C=C(\C)[C@H](OC(N)=O)[C@@H](OC)/C=C\C=C(/C)C(=O)NC(=CC1=O)C2=O      not fulfilled

----------
tested on: IMC-1 (IL-2 20 ng/mL); assay: percent inhibition of viability; higher = more inhibition; conditions: 72 h; 1000 nM
percent inhibition of viability values by entry
quantity-kind: percent inhibition of viability (%)

>>> df
                                   compound  test_value
0  FC(F)c1nc2ccccc2n1-c1nc(N2CCOCC2)nc(N2CCOCC2)n1 [ZSTK474] (max concentration tested 10000 nM)       -31.5
1  Cc1cc(C)c(CNC(=O)c2cc(-c3ccc(CN4CCOCC4)cc3)cc3c2cnn3C2CCCC2)c(=O)[nH]1 [EPZ-5687] (max concentration tested 10000 nM)       -3.52
2  CNC(=O)c1cc(Oc2ccc(NC(=O)Nc3ccc(Cl)c(C(F)(F)F)c3)c(F)c2)ccn1 [Regorafenib] (max concentration tested 10000 nM)        6.77
3  Cc1cc(C)c(/C=C2\C(=O)Nc3ccccc32)[nH]1 [Semaxanib] (max concentration tested 10000 nM)       -0.69
4  C[C@@]1(C(=O)Nc2ccc(F)nc2)CCCN1c1nc(Nc2cc(C3CC3)n[nH]2)c2cccn2n1 (max concentration tested 10000 nM)        3.22
5  C=C1C[C@@H]2[C@H](CC[C@]3(C)C(=O)CC[C@@H]23)[C@@]2(C)C=CC(=O)C=C12 [Exemestane] (max concentration tested 10000 nM)        7.31

----------
Overview of reported percent inhibition of viability across a group of compounds:
tested on: normal primary NK cells, pool 3 (3 donors) (IL-2 2.5 ng/mL); experiment: percent inhibition of viability; higher = more inhibition; settings: 72 h; 10000 nM
quantity-kind: percent inhibition of viability (%)

>>> df
                                   compound                    quantity_kind  test_value
0  Nc1nc2[nH]cc(CCc3ccc(C(=O)N[C@@H](CCC(=O)O)C(=O)O)cc3)c2c(=O)[nH]1 [Pemetrexed] (max concentration tested 10000 nM)  percent inhibition of viability       -7.17
1  Cc1cnc(Nc2ccc(OCCN3CCCC3)cc2)nc1Nc1cccc(S(=O)(=O)NC(C)(C)C)c1 [Fedratinib] (max concentration tested 10000 nM)  percent inhibition of viability         100
2  O=C(O)C1(C(=O)O)CCC1.[NH2-].[NH2-].[Pt+2] [Carboplatin] (max concentration tested 100000 nM)  percent inhibition of viability        18.1

----------
Recorded relative IC50 by entry
test system: YT (IL-2 2.5 ng/mL); test: relative IC50 (inflection point of fitted viability curve, relative to fitted max inhibition); higher = less sensitive; conditions: 72 h
quantity-kind: relative IC50 (nM)

structure-notation	units-text	test-value
CC(=O)O[C@@]12CO[C@@H]1C[C@H](O)[C@@]1(C)C(=O)[C@H](O)C3=C(C)[C@@H](OC(=O)[C@H](O)[C@@H](NC(=O)OC(C)(C)C)c4ccccc4)C[C@@](O)([C@@H](OC(=O)c4ccccc4)[C@H]21)C3(C)C	nM	2.24
CCCS(=O)(=O)Nc1ccc(F)c(C(=O)c2c[nH]c3ncc(-c4ccc(Cl)cc4)cc23)c1F	nM	1910
COc1ccc(C2=N[C@@H](c3ccc(Cl)cc3)[C@@H](c3ccc(Cl)cc3)N2C(=O)N2CCNC(=O)C2)c(OC(C)C)c1	nM	1440
C[C@@H]1CCN(C(=O)CC#N)C[C@@H]1N(C)c1ncnc2[nH]ccc12	nM	336
Nc1ccccc1NC(=O)c1ccc(CNC(=O)OCc2cccnc2)cc1	nM	2460
CC(=O)O[C@H]1C(=O)[C@@]2(C)[C@H]([C@H](OC(=O)c3ccccc3)[C@]3(O)C[C@H](OC(=O)[C@H](O)[C@@H](NC(=O)c4ccccc4)c4ccccc4)C(C)=C1C3(C)C)[C@]1(OC(C)=O)CO[C@@H]1C[C@@H]2O	nM	5.42
COCC[n+]1c2c(n(Cc3cnccn3)c1C)C(=O)c1ccccc1C2=O	nM	7.77
C=CCc1cccc(/C=N/NC(=O)CN2CCN(Cc3ccccc3)CC2)c1O	nM	1620

----------
percent inhibition of viability by entry:
system: IMC-1 (IL-2 20 ng/mL); experiment: percent inhibition of viability; higher = more inhibition; details: 72 h; 10000 nM
quantity-kind: percent inhibition of viability (%)

In [3]: df
Out[3]:
                                    compound                    quantity_kind  test_value
 0  CNC(=O)c1cccc(-c2ccc3c(N4CCOC[C@@H]4C)nc(N4CCOC[C@@H]4C)nc3n2)c1 [AZD2014] (max concentration tested 10000 nM)  percent inhibition of viability        8.41
 1  CC1(C)CNc2cc(NC(=O)c3cccnc3NCc3ccncc3)ccc21 [Motesanib] (max concentration tested 10000 nM)  percent inhibition of viability        16.6
 2  COc1cc2nccc(Oc3ccc(NC(=O)Nc4cc(C)on4)c(Cl)c3)c2cc1OC [Tivozanib] (max concentration tested 10000 nM)  percent inhibition of viability        20.3
 3  CNC(=O)c1ccc(N2C(=S)N(c3ccc(C#N)c(C(F)(F)F)c3)C(=O)C23CCC3)cc1F [RD162] (max concentration tested 10000 nM)  percent inhibition of viability        17.6
 4  CCCC(CCC)C(=O)O [Valproic acid] (max concentration tested 1000000 nM)  percent inhibition of viability        -8.1
 5  COc1c(C)cnc(Cn2cnc3c(Cl)nc(N)nc32)c1C [BIIB021] (max concentration tested 10000 nM)  percent inhibition of viability         101
 6  C[C@@H](Oc1cc(-n2cnc3ccc(CN4CCN(C)CC4)cc32)sc1C(N)=O)c1ccccc1C(F)(F)F (max concentration tested 10000 nM)  percent inhibition of viability        99.8
 7  COc1cc2c(NC3CCN(C(C)C)CC3)nc(N3CCC(F)(F)CC3)nc2cc1OCCCN1CCCC1 [UNC0642] (max concentration tested 10000 nM)  percent inhibition of viability         100
 8  Cc1ccc(-c2cc(C(F)(F)F)nn2-c2ccc(S(N)(=O)=O)cc2)cc1 [Celecoxib] (max concentration tested 10000 nM)  percent inhibition of viability        21.4
 9  Nc1ccccc1NC(=O)c1ccc(CNC(=O)OCc2cccnc2)cc1 [Entinostat] (max concentration tested 10000 nM)  percent inhibition of viability        99.8
10  Nc1nc2[nH]cc(CCc3ccc(C(=O)N[C@@H](CCC(=O)O)C(=O)O)cc3)c2c(=O)[nH]1 [Pemetrexed] (max concentration tested 10000 nM)  percent inhibition of viability        94.2
11  O=C(O)C1(C(=O)O)CCC1.[NH2-].[NH2-].[Pt+2] [Carboplatin] (max concentration tested 100000 nM)  percent inhibition of viability        61.7
12  Cn1cc(-c2ccc3nnc(C(F)(F)c4ccc5ncccc5c4)n3n2)cn1 (max concentration tested 10000 nM)  percent inhibition of viability        18.1
